The reported measurements were obtained from the supplement of paper PMC7877785.

experiment: self-splicing fitness, log relative to wild type (ln ratio); higher = more splicing; Tetrahymena group I intron in knt gene, E. coli kanamycin selection, DiMSum; sequences stand for … in CUCUCU…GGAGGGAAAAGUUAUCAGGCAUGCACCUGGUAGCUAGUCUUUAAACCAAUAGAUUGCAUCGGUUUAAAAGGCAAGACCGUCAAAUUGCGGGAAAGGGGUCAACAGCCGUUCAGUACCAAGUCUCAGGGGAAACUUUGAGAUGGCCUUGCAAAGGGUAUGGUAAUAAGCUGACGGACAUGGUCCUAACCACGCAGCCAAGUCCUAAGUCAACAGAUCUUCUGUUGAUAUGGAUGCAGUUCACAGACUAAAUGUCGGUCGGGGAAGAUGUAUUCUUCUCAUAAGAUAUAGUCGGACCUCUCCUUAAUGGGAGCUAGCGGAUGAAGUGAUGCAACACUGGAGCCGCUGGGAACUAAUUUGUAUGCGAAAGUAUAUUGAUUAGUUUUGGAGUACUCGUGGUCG; conditions: 37 °C;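 note: selection with 25 µg/mL kanamycin versus none on LB agar overnight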

>  <RECORD SEQUENCE>
AGGUAGCAAUAUUACGUAUG

>  <self-splicing fitness (ln)>
-2.53

$$$$
>  <RECORD SEQUENCE>
CUGUAGCAAUAUUACGUCUG

>  <self-splicing fitness (ln)>
0.128

$$$$
>  <RECORD SEQUENCE>
ACGAAGCAAUAUUACGAUAU

>  <self-splicing fitness (ln)>
-2.03

$$$$
>  <RECORD SEQUENCE>
GAGUAGCAAUAUUACGAUAC

>  <self-splicing fitness (ln)>
-2.92

$$$$
>  <RECORD SEQUENCE>
AAUUAGCAAUAUUACGCCUU

>  <self-splicing fitness (ln)>
-0.0919

$$$$

###

List of self-splicing fitness (ln) values.
assay: self-splicing fitness, log relative to wild type (ln ratio); higher = more splicing; Tetrahymena group I intron in knt gene, E. coli kanamycin selection, DiMSum; sequences stand for … in CUCUCU…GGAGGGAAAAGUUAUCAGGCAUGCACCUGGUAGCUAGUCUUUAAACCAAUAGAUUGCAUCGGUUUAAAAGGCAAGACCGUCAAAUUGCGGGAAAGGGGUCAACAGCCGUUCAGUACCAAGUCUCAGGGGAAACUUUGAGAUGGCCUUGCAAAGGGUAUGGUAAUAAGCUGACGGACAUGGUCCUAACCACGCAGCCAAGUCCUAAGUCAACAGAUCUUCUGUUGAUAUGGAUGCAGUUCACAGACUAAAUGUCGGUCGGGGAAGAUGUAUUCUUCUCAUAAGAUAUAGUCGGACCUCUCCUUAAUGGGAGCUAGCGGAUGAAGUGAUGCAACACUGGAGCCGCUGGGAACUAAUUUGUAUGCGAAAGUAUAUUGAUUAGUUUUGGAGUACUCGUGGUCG; settings: 30 °C

>  <RECORD SEQUENCE>
AACGAGCAAUAUUACGGUUC

>  <self-splicing fitness (ln)>
-2.87

$$$$
>  <RECORD SEQUENCE>
CAGCAGCAAUAUUACGAAUA

>  <self-splicing fitness (ln)>
-2.35

$$$$
>  <RECORD SEQUENCE>
UGGAAGCAAUAUUACGGAUG

>  <self-splicing fitness (ln)>
-0.948

$$$$
>  <RECORD SEQUENCE>
GUAGAGCAAUAUUACGGACA

>  <self-splicing fitness (ln)>
-0.864

$$$$
>  <RECORD SEQUENCE>
ACGUAGCAAUAUUACGCCUU

>  <self-splicing fitness (ln)>
-1.42

$$$$
>  <RECORD SEQUENCE>
CAGAAGCAAUAUUACGCCGU

>  <self-splicing fitness (ln)>
-3.06

$$$$
>  <RECORD SEQUENCE>
CUGUAGCAAUAUUACGAUAC

>  <self-splicing fitness (ln)>
-2.43

$$$$
>  <RECORD SEQUENCE>
AUAAAGCAAUAUUACGUUUU

>  <self-splicing fitness (ln)>
-2.37

$$$$
>  <RECORD SEQUENCE>
GUCAAGCAAUAUUACGAACG

>  <self-splicing fitness (ln)>
-2.06

$$$$
>  <RECORD SEQUENCE>
GUCCAGCAAUAUUACGGCGA

>  <self-splicing fitness (ln)>
-1.32

$$$$
>  <RECORD SEQUENCE>
AAAUAGCAAUAUUACGUGUA

>  <self-splicing fitness (ln)>
-2.49

$$$$
>  <RECORD SEQUENCE>
AAUUAGCAAUAUUACGGGGA

>  <self-splicing fitness (ln)>
-2.98

$$$$
>  <RECORD SEQUENCE>
AUAAAGCAAUAUUACGGAAC

>  <self-splicing fitness (ln)>
-2.45

$$$$
>  <RECORD SEQUENCE>
AUUGAGCAAUAUUACGGCUG

>  <self-splicing fitness (ln)>
-1.83

$$$$
>  <RECORD SEQUENCE>
AAAGAGCAAUAUUACGGCGC

>  <self-splicing fitness (ln)>
-2.27

$$$$
>  <RECORD SEQUENCE>
GCCGAGCAAUAUUACGGGGA

>  <self-splicing fitness (ln)>
-1.36

$$$$
>  <RECORD SEQUENCE>
UCACAGCAAUAUUACGGUGU

>  <self-splicing fitness (ln)>
-2.41

$$$$

###

Measured self-splicing fitness (ln) accompanies every entry in the list below.
assay: self-splicing fitness, log relative to wild type (ln ratio); higher = more splicing; Tetrahymena group I intron in knt gene, E. coli kanamycin selection, DiMSum; sequences stand for … in CUCUCU…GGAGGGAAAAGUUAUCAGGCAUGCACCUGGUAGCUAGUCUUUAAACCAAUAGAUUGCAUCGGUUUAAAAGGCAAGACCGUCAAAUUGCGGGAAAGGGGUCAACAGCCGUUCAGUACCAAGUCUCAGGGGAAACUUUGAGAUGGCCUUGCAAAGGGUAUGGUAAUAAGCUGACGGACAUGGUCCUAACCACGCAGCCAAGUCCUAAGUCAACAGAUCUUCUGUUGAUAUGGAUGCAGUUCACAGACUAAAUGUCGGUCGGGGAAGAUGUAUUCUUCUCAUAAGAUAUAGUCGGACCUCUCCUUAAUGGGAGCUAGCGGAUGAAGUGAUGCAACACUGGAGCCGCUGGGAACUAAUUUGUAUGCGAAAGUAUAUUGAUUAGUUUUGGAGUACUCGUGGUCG; conditions: 30 °C

>  <RECORD SEQUENCE>
CGAAAGCAAUAUUACGUCCA

>  <self-splicing fitness (ln)>
-1.26

$$$$
>  <RECORD SEQUENCE>
UACGAGCAAUAUUACGGUGC

>  <self-splicing fitness (ln)>
-3.46

$$$$
>  <RECORD SEQUENCE>
UACGAGCAAUAUUACGGAUC

>  <self-splicing fitness (ln)>
-3.56

$$$$
>  <RECORD SEQUENCE>
CACUAGCAAUAUUACGCUUC

>  <self-splicing fitness (ln)>
-3.74

$$$$
>  <RECORD SEQUENCE>
GAGGAGCAAUAUUACGGACU

>  <self-splicing fitness (ln)>
-1.49

$$$$
>  <RECORD SEQUENCE>
AUGUAGCAAUAUUACGGUCG

>  <self-splicing fitness (ln)>
-1.44

$$$$
>  <RECORD SEQUENCE>
AUCAAGCAAUAUUACGAGUG

>  <self-splicing fitness (ln)>
-2.19

$$$$

###

test: self-splicing fitness, log relative to wild type (ln ratio); higher = more splicing; Tetrahymena group I intron in knt gene, E. coli kanamycin selection, DiMSum; sequences stand for … in CUCUCU…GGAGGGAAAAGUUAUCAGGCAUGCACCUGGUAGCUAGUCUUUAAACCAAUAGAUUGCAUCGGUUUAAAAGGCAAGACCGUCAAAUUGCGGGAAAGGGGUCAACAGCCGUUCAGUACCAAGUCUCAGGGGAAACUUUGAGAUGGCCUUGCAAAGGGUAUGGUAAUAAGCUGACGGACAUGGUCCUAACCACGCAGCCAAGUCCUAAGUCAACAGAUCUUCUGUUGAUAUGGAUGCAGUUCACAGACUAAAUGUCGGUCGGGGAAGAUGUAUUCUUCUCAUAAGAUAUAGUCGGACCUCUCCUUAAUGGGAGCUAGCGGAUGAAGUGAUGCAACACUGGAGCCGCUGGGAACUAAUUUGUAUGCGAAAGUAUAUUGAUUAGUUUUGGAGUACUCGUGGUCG; settings: 30 °C
Returns one of Criterion met or Criterion not met; Criterion met when self-splicing fitness (ln) is >= -2.

>  <RECORD SEQUENCE>
UCCAAGCAAUAUUACGGUGA

>  <CAT>
Criterion met

$$$$
>  <RECORD SEQUENCE>
CCGUAGCAAUAUUACGCUGU

>  <CAT>
Criterion not met

$$$$
>  <RECORD SEQUENCE>
UCUGAGCAAUAUUACGCGUA

>  <CAT>
Criterion not met

$$$$
>  <RECORD SEQUENCE>
GGACAGCAAUAUUACGAUCA

>  <CAT>
Criterion met

$$$$
>  <RECORD SEQUENCE>
GAGAAGCAAUAUUACGGCAA

>  <CAT>
Criterion met

$$$$
>  <RECORD SEQUENCE>
AACCAGCAAUAUUACGAGUC

>  <CAT>
Criterion met

$$$$
>  <RECORD SEQUENCE>
AGGGAGCAAUAUUACGAGGC

>  <CAT>
Criterion not met

$$$$
>  <RECORD SEQUENCE>
CAAUAGCAAUAUUACGCUCG

>  <CAT>
Criterion met

$$$$
>  <RECORD SEQUENCE>
CCAUAGCAAUAUUACGUGUA

>  <CAT>
Criterion not met

$$$$
>  <RECORD SEQUENCE>
AUCCAGCAAUAUUACGUGUA

>  <CAT>
Criterion met

$$$$
>  <RECORD SEQUENCE>
AAAGAGCAAUAUUACGGGCU

>  <CAT>
Criterion not met

$$$$
>  <RECORD SEQUENCE>
AGUAAGCAAUAUUACGGUGC

>  <CAT>
Criterion not met

$$$$
>  <RECORD SEQUENCE>
ACAUAGCAAUAUUACGUUUC

>  <CAT>
Criterion not met

$$$$
>  <RECORD SEQUENCE>
AUUUAGCAAUAUUACGUGUU

>  <CAT>
Criterion met

$$$$
>  <RECORD SEQUENCE>
GAGGAGCAAUAUUACGUGCA

>  <CAT>
Criterion not met

$$$$
>  <RECORD SEQUENCE>
GCUCAGCAAUAUUACGAACA

>  <CAT>
Criterion met

$$$$
>  <RECORD SEQUENCE>
UACUAGCAAUAUUACGGUCG

>  <CAT>
Criterion met

$$$$
>  <RECORD SEQUENCE>
GCAAAGCAAUAUUACGGGGC

>  <CAT>
Criterion not met

$$$$
>  <RECORD SEQUENCE>
AUUUAGCAAUAUUACGGAGG

>  <CAT>
Criterion not met

$$$$
